Assign TGI to each entry below.
# Test system: RPMI-8226 leukemia
# test protocol: NCI tumour cell line growth inhibition, 48 h

Data point: O=C(NN1C(=O)CSC1c1cccc(F)c1)c1ccncc1 (stereo not given) ; TGI = > 100 µM

Consider C=CCN1C(=O)/C(=C/c2ccc(C)cc2)N=C1SC1OC(COC(C)=O)C(OC(C)=O)C(OC(C)=O)C1OC(C)=O (stereo not given) . Its measured TGI is > 100 µM

# TGI (compound: COc1cccc(COc2cc(-n3cnc4ccccc43)sc2C(N)=O)c1 ) is > 25 µM

Field TGI (entry O=[N+]([O-])c1cc(Cl)ccc1Sc1ccccc1 ) reads > 100 µM

// CC(C)Oc1ccc(C(=O)Cn2ccnc2)cc1-n1c(CN2CCN(C(=O)COc3ccc(Cl)cc3)CC2)nc2ccccc2c1=O : TGI value = 40.4 µM

So for COc1ccc([C@H]2C=[N+]([O-])O[C@H](OC3CCCC3)[C@@H]2OC(C)=O)cc1OC , the logged TGI turned out to be > 100 µM

For reference, reported TGI for CC(C)[O-].CC(C)[O-].O=c1cccccc1[O-].O=c1cccccc1[O-].[Ti+4] stands at > 100 µM

Measured TGI of COc1ccc(C2Oc3c(c(O)cc4c3[C@H](c3ccc(O)cc3O)[C@H](O)C(c3ccc(O)c(O)c3)O4)C[C@@H]2O)cc1O (stereo not given in full) : > 100 µM

CC(C)=CCC[C@@H](C)C1=C(O)C(N)=C(C)C(=O)C1=O yielded TGI of 98.6 µM

The measured TGI associated with O=C(O)/C=C\C(=O)Nc1ccc(S(=O)(=O)c2ccc(NC(=O)/C=C\C(=O)O)cc2)cc1 reads > 100 µM

Sample Cc1cc(O)c(-c2cc(O)c(C)cc2O)cc1O ; TGI observed: 4.07 µM

For this compound ( O=C1c2cccc3cccc(c23)C(=O)N1O ), measured TGI is > 100 µM

For this compound ( COC(=O)C1(O)C(c2ccccc2)=NC2(C)CCCC21 (stereo not given) ), measured TGI is > 100 µM

compound N#Cc1c(-c2ccccc2)c2c([nH]c1=O)-c1cc([N+](=O)[O-])ccc1CCC2 , TGI observed: > 100 µM

Reported TGI of C=C1C2Oc3ccccc3C1N(c1ccccc1)O2 (stereo not given) : > 100 µM

Summary for this compound, COc1cccc2c1OCC1Cc3ccccc3OC21 (stereo not given) : TGI is > 100 µM

For record COC(=O)c1ccc2c(c1)C(=O)c1c-2n(CCCN=[N+]=[N-])c(=O)c2cc([N+](=O)[O-])ccc12 the listed TGI is > 100 µM

Record CCOP(=O)(OCC)OC1CC(n2cc(C)c(=O)n(C)c2=O)OC1CO[Si](C)(C)C(C)(C)C (stereo not given) . Reported TGI: > 100 µM

compound CC(C)/C(Cl)=N/OC(=O)Nc1ccc(OC(F)(F)F)cc1 , TGI observed: 8.97 µM

For record O=C(CC(=O)Nc1ccccc1)NNC(c1cc(N=Nc2ccc(Br)cc2)ccc1O)P(O)O (stereo not given) the listed TGI is > 10 µM

###

# Test system: U251 CNS
# test protocol: NCI tumour cell line growth inhibition, 48 h
measured attribute: TGI

Documented TGI of O=C1C2=Nc3ccccc3C(O)(C(=O)O)N2c2ccccc21 (stereo unspecified) : > 100 µM

compound COc1ccc2[nH]c(-c3ccc(O)cc3)cc(=O)c2c1 , TGI observed: 9.29 µM

For record COc1ccc(-c2cnoc2-c2cc(OC)c3c(c2)OCCO3)cc1 the listed TGI is > 100 µM

For reference, reported TGI for Cn1c(=O)nc2n(-c3ccc(Cl)c(C(F)(F)F)c3)c3ccccc3nc-2c1=O stands at > 100 µM

The compound listed as OCc1ccc(N2CCOCC2)cc1Cl has a reported TGI of > 100 µM

Per the record, N#Cc1c(-c2ccco2)cc(-c2ccccc2)[nH]c1=O has TGI of > 100 µM

Entry Cc1cc(C)n(C2=NS(=O)(=O)c3ccccc3N2C)n1 , TGI reported as > 100 µM

What the record says about Cc1cccc(N=Nc2ccc(N=Nc3c(O)ccc4ccccc34)cc2C)c1 : TGI is > 100 µM

TGI recorded for this compound, O=[N+]([O-])/C(Cl)=C(\NCCN/C(C(Cl)=C(Cl)Cl)=C(/Cl)[N+](=O)[O-])C(Cl)=C(Cl)Cl , is > 100 µM

# TGI of CCN(CC)c1ccc(/C=C/C2=[N+](C)c3ccccc3C2(C)C)c(C)c1 = 2.54 µM

Reported TGI for CSc1nc2c(ncn2C2OC(CO)C(O)C(O)C2O)c(=O)[nH]1 (stereo unspecified) was > 100 µM

###

# System: HL-60(TB) leukemia
# test protocol: NCI tumour cell line growth inhibition, 48 h
measured attribute: TGI

Measured TGI, COc1cc([N+](=O)[O-])c(OC)c2c(Nc3ccc(S(=O)(=O)O)c4cc(S(=O)(=O)O)cc(S(=O)(=O)O)c34)cc(C)nc12 : > 100 µM

The molecule identified as OCc1ccc(N2CCOCC2)cc1Cl registered its TGI at > 100 µM

Just so you know, measured TGI for CC(=Nc1ccc(S(N)(=O)=O)cc1)c1c(O)[nH]c2ccccc12 came out at > 25 µM

response.value for COc1ccc(-n2nc(C)c3c(Nc4ccc(NC(=O)Nc5ccc(Cl)c(C(F)(F)F)c5)cc4)ncnc32)cc1 (field: TGI) = 4.95 µM

O=[N+]([O-])c1cc(Cl)ccc1Sc1ccccc1 has a reported TGI of > 100 µM

So, CC#CC(O)(C(=O)OC1CC(C)N(C)C(C)(C)C1)C1CCCC1 (centres undefined) ? Its TGI was > 100 µM

// TGI lookup, molecule = O=C(O)/C=C\C(=O)Nc1ccc(S(=O)(=O)c2ccc(NC(=O)/C=C\C(=O)O)cc2)cc1 , result: > 100 µM

The molecule identified as C=CCN1C(=O)/C(=C/c2ccc(C)cc2)N=C1SC1OC(COC(C)=O)C(OC(C)=O)C(OC(C)=O)C1OC(C)=O (centres undefined) registered its TGI at > 100 µM

Lab note: Cc1nc(-c2cccnc2)sc1C(=O)/C=C/c1cccc([N+](=O)[O-])c1 gave TGI of > 100 µM

###

What TGI was measured for each of the following?
# Tested on: SR leukemia
# test protocol: NCI tumour cell line growth inhibition, 48 h

Per the records, this compound ( CN(C)C(=S)Nc1nnc(Nc2ccccc2)s1 ) has TGI equal to > 100 µM

Documented TGI of C/C(=C\CO)CC/C=C(\C)CNc1ccc([N+](=O)[O-])cc1 : 27.1 µM

Sample COc1cccc(COc2cc(-n3cnc4ccccc43)sc2C(N)=O)c1 ; TGI observed: > 25 µM

Record CON(C)C(=O)C1CCCO1 (centres undefined) . Reported TGI: > 100 µM

Entry CC(C)=CCC[C@@H](C)C1=C(O)C(N)=C(C)C(=O)C1=O — recorded TGI = > 78.4 µM

According to the records, this compound CCOC(=O)c1ccc(Nc2nc3ccc(C(F)(F)F)cc3nc2C(=O)OCC)cc1 displays TGI of > 100 µM

// TGI value for O=S1(=O)C[C@@H](NCc2ccccc2)[C@H](NCc2ccccc2)C1 : > 100 µM

Field TGI (entry O=C1C2=C(CCC2)Nc2cccc3ncn1c23 ) reads > 100 µM

The reported TGI of the compound O=C1C2=Nc3ccccc3C(O)(C(=O)O)N2c2ccccc21 (centres undefined) was > 100 µM

Briefly, TGI measured for CC1(C)OC2COC3([C@@H]4OC(C)(C)O[C@@H]4CO)OC(C)(C)OC3C2O1 (some centres undefined) : > 100 µM

Short answer for CC(=Nc1ccc(S(N)(=O)=O)cc1)c1c(O)[nH]c2ccccc12 : TGI was > 25 µM

Entry O=C(OCC1OC(n2nc(Cn3nnc(-c4cccnc4)n3)n(-c3cccc4ccccc34)c2=S)C(OC(=O)c2ccccc2)C1OC(=O)c1ccccc1)c1ccccc1 (centres undefined) — recorded TGI = > 100 µM

Summary for this compound, O=C(c1cccs1)C1NO[N+]([O-])=C1c1cccs1 (centres undefined) : TGI is 4.73 µM

// field: TGI; key: N#Cc1c(-c2ccccc2)c2c([nH]c1=O)-c1cc([N+](=O)[O-])ccc1CCC2 ; value = > 100 µM

###

# System: M19-MEL melanoma
# test protocol: NCI tumour cell line growth inhibition, 48 h
Task for the reader: assign each of the following molecules its reported TGI.

Considering Nc1ccccc1C(=O)C(Br)C(Br)c1ccc2c(c1)OCO2 (stereo not drawn) , its TGI with M19-MEL melanoma was recorded as 39.6 µM

Measured on M19-MEL melanoma, O=C(O)CCCCCCCCC(=O)O has a documented TGI of > 500 µM

Summary line: Cc1cccc(C)c1N1C(=O)C(=O)C(c2nc3ccccc3s2)/C(=N/NC(=O)NN)C1=O (stereo not drawn) , M19-MEL melanoma, reported TGI = > 100 µM

Let me check: C=C1C(=O)C23C(O)CC4C5(C)CCCC4(C(O)OC5)C2C(OC(C)=O)CC1C3O (stereo not drawn) , system M19-MEL melanoma, measured TGI is 30.7 µM

The molecule Cn1c(=O)nc2n(-c3ccc(Cl)c(C(F)(F)F)c3)c3ccccc3nc-2c1=O , when measured on M19-MEL melanoma, yielded TGI of 27.8 µM

The recorded TGI with M19-MEL melanoma for O=C1C2=C(CCC2)Nc2cccc3ncn1c23 was > 100 µM

Item Cc1c(C)c(CC(=O)N2CC2)c(C)c(C)c1CC(=O)N1CC1 was tested on M19-MEL melanoma; the reported TGI is 27.4 µM

Value (TGI, M19-MEL melanoma) for record Cc1cccc(N(CC(=O)O)S(=O)(=O)c2ccccc2)c1 = > 100 µM

Case C=CCNC(=O)N(CCC)CCCC(NC(C)=O)C(=O)NCc1ccccc1 (stereo not drawn) , M19-MEL melanoma, TGI recorded as > 100 µM

GET /values?item= CN(C)C(=S)Nc1nnc(Nc2ccccc2)s1 &system= M19-MEL melanoma returns TGI: > 100 µM

TGI of COc1cc(CNc2nc3ccc(C(F)(F)F)cc3nc2-c2ccccc2)cc(OC)c1OC , assay on M19-MEL melanoma, is > 100 µM

The molecule COc1cc(C2c3cc4c(cc3[C@@H](Nc3ccc5c(c3)OCCO5)C3COC(=O)[C@H]23)OCO4)cc(OC)c1O (stereo partly drawn) on M19-MEL melanoma: TGI was > 35.9 µM

Form: item COc1ccc(C2Oc3c(c(O)cc4c3[C@H](c3ccc(O)cc3O)[C@H](O)C(c3ccc(O)c(O)c3)O4)C[C@@H]2O)cc1O (stereo partly drawn) ; test system M19-MEL melanoma; TGI: > 100 µM
